Entries and their melting point

[[record]]
compound = "Cn1ccc2ccc(CO)cc21"
assay_metric = "melting point"
value_measured = "47 to 49 °C"

[[record]]
compound = "N#CC(c1cccnc1)C1CCN(C(=O)CC(NC(=O)c2cccc(OCc3ccc4ccccc4n3)c2)c2ccccc2)CC1 (stereo unspecified)"
assay_metric = "melting point"
value_measured = "91 to 97 °C"

[[record]]
compound = "CC(C)Nc1ccc2c(c1)N1CCN=C1S2"
assay_metric = "melting point"
value_measured = "128 °C"


Q) Using the record for Oc1nc(Cl)n(CCOc2ccccc2)n1 , state its measured melting point.
A) 166 °C

Q) Using the record for Cc1ccc(SC(C#N)c2ccc(C(=O)c3cccs3)cc2)cc1 (stereo unspecified) , state its measured melting point.
A) 124 to 126 °C

Q) Using the record for CCOC(=O)c1ccc(N2CCN(C(=O)N(CC)CC)CC2)cc1 , state its measured melting point.
A) 77 to 82 °C

Q) Using the record for O=C1c2ccccc2C(=O)N1CCCN1CCC(=C(c2ccccc2)c2ccccc2)CC1 , state its measured melting point.
A) 108 to 110 °C

Q) Using the record for COc1cc(C(=O)O)cc2c1CC(C)O2 (stereo unspecified) , state its measured melting point.
A) 180 to 182 °C

Q) Using the record for NC(=O)c1cnn2c1NCC=C2c1cccc(F)c1 , state its measured melting point.
A) 122 to 125 °C

Q) Using the record for O=c1[nH]c2ccc(C=CCN3CCC(Cc4ccc(F)cc4)CC3)cc2o1 , state its measured melting point.
A) 202 to 204 °C

Q) Using the record for COC[C@H](C1CC1)n1cc(Cl)nc(Nc2cc(C)c(OC)nc2C)c1=O , state its measured melting point.
A) 99 to 100 °C

====

Assay metric: melting point

Solved entries (count: 4):
[[record]]
compound = "Cc1sc(-c2ccccc2)nc1COc1ccc(C=O)cn1"
value_measured = "120 to 121 °C"

[[record]]
compound = "Cn1c(COc2ccc(CC3SC(=O)NC3=O)cc2)nc2ccc(Oc3ccc(NC(=S)Nc4cccc5ccccc45)cc3)cc21 (stereo not given)"
value_measured = "186 to 188 °C"

[[record]]
compound = "NCc1ccn(C2=CC3=C(CC2)CCc2[nH]c(=O)c(=O)n(O)c23)c1"
value_measured = "> 250 °C"

[[record]]
compound = "OCC1OC(n2cnc3c(NC4CCCC4O)ncnc32)C(O)C1O (stereo not given)"
value_measured = "163 to 164 °C"


Attention now turns to another entry.
Q) Using the record for CCC(=O)c1cnc2c(OCCO)cccc2c1Nc1ccc(F)cc1C , state its measured melting point.
A) 170 to 172 °C

====

Assay metric: melting point

Solved entries (count: 3):
[[record]]
smiles_representation = "O=C(NCc1ccccc1-c1ccccc1C(=O)NCCc1ccccn1)Nc1ccccc1"
assay_metric = "melting point"
value_measured = "99 °C"

[[record]]
smiles_representation = "CCn1nc(-c2ccccc2)c(C(=O)CCc2ccccc2)c(N)c1=O"
assay_metric = "melting point"
value_measured = "115 to 116 °C"

[[record]]
smiles_representation = "NC1([C@@H]2CCN(c3cc4c(cc3F)c(=O)c(C(=O)O)cn4[C@@H]3C[C@@H]3F)C2)CC1"
assay_metric = "melting point"
value_measured = "240 to 242 °C"


Q) Using the record for CCOc1ccc2[nH]cc(C(=O)NCc3ccccn3)c(=O)c2c1 , state its measured melting point.
A) 222 to 224 °C

Q) Using the record for CS(=O)(=O)NC(=O)N[C@H]1CCN(c2ccc3c(NC(=O)CC4CCCCC4)c(Cl)ccc3n2)C1 , state its measured melting point.
A) 303 to 307 °C

====

Assay metric: melting point

Solved entries (count: 4):
[[record]]
compound = "COc1cccc(N2CC(=O)N(c3ccc(S(N)(=O)=O)cc3Cl)C2)c1"
value_measured = "200 to 203 °C"

[[record]]
compound = "C#CCOc1ccc2nc(N)c3nc4n(c3c2c1)C(C)COC4 (stereo unspecified)"
value_measured = "184 to 186 °C"

[[record]]
compound = "Cc1nc(-n2cnn(CCOC(=O)NCc3ccc(F)cc3)c2=O)sc1C(=O)NCc1cccnc1"
value_measured = "149 to 150 °C"

[[record]]
compound = "Cc1cc(C(O)(C(F)(F)F)C(F)(F)F)cc(C)c1NCCC#N"
value_measured = "111 to 114 °C"


Q) Using the record for CCOC(=O)c1cc2c3ccccc3[nH]c(=O)n2n1 , state its measured melting point.
A) 242 to 244 °C

Q) Using the record for CNc1nc2c(cc1NC(=O)N1CCN(c3cc(OC)cc(OC)c3)CC1)CCC2 , state its measured melting point.
A) 148 to 150 °C

====

Assay metric: melting point

Solved entries (count: 5):
[[record]]
compound = "Cc1[nH]c(C=O)c(C)c1C(=O)NCCC1CCCN1C (stereo not given)"
value_measured = "143 to 149 °C"

[[record]]
compound = "O=Cc1cccn1CCN1CCC(=C2c3ccccc3CCn3ccnc32)CC1"
value_measured = "158 °C"

[[record]]
compound = "OCC(O)COc1ccc(NNC(c2ccccc2)(c2ccccc2)c2ccccc2)nn1 (racemic)"
value_measured = "174 to 176 °C"

[[record]]
compound = "OCc1cccc(-c2nn(Cc3ccccc3)c3ccccc23)c1"
value_measured = "98 to 99 °C"

[[record]]
compound = "Cc1cc(C=O)cc(Oc2[nH]c(=O)[nH]c(=O)c2C(C)C)c1"
value_measured = "241 to 242 °C"


Q) Using the record for CC(C)OP(=O)(/C=C/CCn1cnc2c(N)ncnc21)OC(C)C , state its measured melting point.
A) 121 to 122 °C

Q) Using the record for CCCCNC(=O)C(C)n1cc(C)c(-c2ccccc2)n1 (stereo not given) , state its measured melting point.
A) 82 to 84 °C

====

Entries and their melting point

Solved entries (count: 2):
[[record]]
compound = "CCOC(=O)c1c(C)nc2c(cnn2CC)c1O"
value_measured = "118 to 120 °C"

[[record]]
compound = "CCNC(=O)n1nc(Oc2ccc([N+](=O)[O-])cc2)cc1C"
value_measured = "105 to 107 °C"


Q) Using the record for Cc1cc2c(c(C)c1S(=O)(=O)C[N+](=O)[O-])CCCS2(=O)=O , state its measured melting point.
A) 168 to 170 °C

Q) Using the record for CC(C)(C)OC(=O)N[C@H](Cc1ccc(C(F)(F)F)cc1)[C@@H](O)c1ccc(Cl)nc1 (racemic) , state its measured melting point.
A) 157 to 158 °C

Q) Using the record for CNCC(=O)Nc1ccc(C2=NN(C(C)=O)C(C)Cc3cc4c(cc32)OCO4)cc1 (centres undefined) , state its measured melting point.
A) 220 to 222 °C

Q) Using the record for CC(C)(C)c1cc(OCCCCC#N)cc(C(C)(C)C)c1 , state its measured melting point.
A) 61 to 64 °C

Q) Using the record for COc1cc(C=CC(=O)Nc2c(CCO)nc3c(C)cc(C)cc3c2-c2ccccc2Cl)ccc1O , state its measured melting point.
A) 133 to 134 °C

Q) Using the record for CNc1nc(-c2cccc(NC(=O)c3ccccc3OCc3ccccc3)c2)c2cc(OC)c(OC)cc2n1 , state its measured melting point.
A) 192 to 194 °C

Q) Using the record for Cc1cc(Oc2ccccc2)c(NC(=O)OCc2ccccc2)c(=O)n1CC(=O)O , state its measured melting point.
A) 108 to 110 °C

Q) Using the record for COc1ccc(S(=O)(=O)C(c2cc(F)ccc2F)c2cc(N)ncc2Cl)cc1 (centres undefined) , state its measured melting point.
A) 153 to 155 °C

Q) Using the record for CCOC(=O)C(C#N)=Cc1ccc(NC(C)=O)cc1 , state its measured melting point.
A) 187 °C

Q) Using the record for CC(C)CC(COCC(N)=O)NC(=O)C1CCCN1C(=O)OCc1ccccc1 (centres undefined) , state its measured melting point.
A) 146 to 148 °C

Q) Using the record for NC(=S)C(c1ccc(Cl)cc1)c1c(Cl)cc(-n2ncc(=O)[nH]c2=O)cc1Cl (centres undefined) , state its measured melting point.
A) 263 °C

Q) Using the record for COc1cc2nc(N3CCNCC3)nc(N)c2cc1OC , state its measured melting point.
A) 224 to 228 °C

Q) Using the record for NC(c1ccc2c(c1)OCO2)P(O)O (centres undefined) , state its measured melting point.
A) 235 to 236 °C

Q) Using the record for CC(=O)OCC1COc2c(C(=O)O)cc(Cl)c(Cl)c2O1 (centres undefined) , state its measured melting point.
A) 144 to 145 °C

Q) Using the record for O=C(Nc1cccnc1)c1cc2ccncc2[nH]1 , state its measured melting point.
A) 270 to 290 °C

Q) Using the record for CCc1noc(-c2ccc(OCCC3CN(c4ccc(Cl)nn4)CCO3)cc2)n1 (centres undefined) , state its measured melting point.
A) 164 °C

====

Entries and their melting point

Solved entries (count: 10):
[[record]]
compound = "Cc1cc2c(c([N+](=O)[O-])c1)N(c1ccccc1C#N)CC2"
value_measured = "138 to 139 °C"

[[record]]
compound = "CCCCn1ccc(-c2ccc(Oc3cc(C)nc(C)c3)cc2F)c(C#N)c1=O"
value_measured = "170 °C"

[[record]]
compound = "Cc1c(C(=O)Nc2ccc(N3CCN(CCO)CC3)c(C#N)c2)cnn1-c1ccc(F)c(Cl)c1"
value_measured = "191 °C"

[[record]]
compound = "CN1CCN(Cc2cc(-c3ccc4c(c3)CCO4)nn(CC=Cc3ccc(Cl)cc3)c2=O)CC1"
value_measured = "112 to 113 °C"

[[record]]
compound = "NCCn1c(=O)nc(-c2ccc3c(c2)OCO3)c2cc3c(cc21)OCO3"
value_measured = "115 to 120 °C"

[[record]]
compound = "O=C(C[C@@H](CCCC1CCCCC1)c1nc(CNC2CCOCC2)no1)NO"
value_measured = "109 to 110 °C"

[[record]]
compound = "Cc1ccc(Cn2c(=O)c3c(N4CCN(C)CC4)cc(Cl)cc3n(Cc3ccccc3)c2=O)o1"
value_measured = "132 to 136 °C"

[[record]]
compound = "CCCN(CCC)C(=O)CNc1nc(-c2ccccc2)ncc1N"
value_measured = "120 to 122 °C"

[[record]]
compound = "COc1cc(C)c(C(=O)c2c(C(F)(F)F)cc(Cl)nc2Cl)c(OC)c1OC"
value_measured = "81 to 83 °C"

[[record]]
compound = "NC(=O)C1COc2c(F)cccc2O1 (stereo not given)"
value_measured = "167 °C"


Q) Using the record for Clc1ccc(-c2cc(Cl)c3ccccc3n2)cc1 , state its measured melting point.
A) 119 to 122 °C

Q) Using the record for N=C(N)Nc1nc(CSCCNc2ncc(Cc3ccc(Cl)cc3)c(=O)[nH]2)cs1 , state its measured melting point.
A) 205 to 207 °C

Q) Using the record for CS(=O)(=O)c1ccc(CCNC(=O)C(N)=O)cc1OC1CCCC1 , state its measured melting point.
A) 185 to 186 °C

Q) Using the record for Cn1cnc(S(=O)(=O)Nc2cccc(C=C3c4ccccc4CCc4ccccc43)c2)c1 , state its measured melting point.
A) 257 °C

Q) Using the record for O=c1c2cnc(-c3ccccc3)nc2sn1Cc1ccccc1 , state its measured melting point.
A) 166 to 167 °C

Q) Using the record for Cn1c(=O)c(-c2ccccc2Cl)cc2cnc(NC3CCS(=O)(=O)CC3)nc21 , state its measured melting point.
A) 206 to 207 °C

Q) Using the record for O=CNC1=NN(c2ccc(Cl)c(Cl)c2)CC1 , state its measured melting point.
A) 151 to 153 °C

Q) Using the record for COC(=O)c1ccc(OC)cc1-c1ccc(C(F)(F)F)cc1 , state its measured melting point.
A) 93 to 94 °C

Q) Using the record for CNC(=NS(C)(=O)=O)NCCSCc1csc(CN(C)C)n1 , state its measured melting point.
A) 95 to 97 °C

Q) Using the record for O=C(c1cc(C(F)(F)F)cc(C(F)(F)F)c1)N1CCNCCC1c1ccccc1 (stereo not given) , state its measured melting point.
A) 151 to 153 °C

This collection of values is drawn from a melting point compilation (Tetko et al.; mined from patent text by program, amines drawn as free bases though some values may be those of a salt).
